# Assay system: MMP2 (gelatinase A) (Homo sapiens, UniProt P08253)
# Sequence (P08253 110-660): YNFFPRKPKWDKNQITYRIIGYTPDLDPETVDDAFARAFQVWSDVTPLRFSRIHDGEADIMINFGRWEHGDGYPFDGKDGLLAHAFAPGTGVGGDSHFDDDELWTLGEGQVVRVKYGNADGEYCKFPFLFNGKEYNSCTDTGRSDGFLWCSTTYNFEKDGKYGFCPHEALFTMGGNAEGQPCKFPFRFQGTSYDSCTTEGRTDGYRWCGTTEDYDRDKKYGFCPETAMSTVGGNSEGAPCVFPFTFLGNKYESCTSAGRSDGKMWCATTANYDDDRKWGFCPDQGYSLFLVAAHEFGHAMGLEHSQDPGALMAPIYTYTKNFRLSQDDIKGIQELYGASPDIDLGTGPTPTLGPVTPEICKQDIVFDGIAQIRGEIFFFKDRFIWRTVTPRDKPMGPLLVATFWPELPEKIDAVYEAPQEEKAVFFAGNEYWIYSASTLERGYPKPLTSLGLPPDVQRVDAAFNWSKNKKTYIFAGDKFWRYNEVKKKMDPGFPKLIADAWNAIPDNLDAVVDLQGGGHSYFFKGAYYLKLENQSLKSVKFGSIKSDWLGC
# Method notes: In vitro inhibition of MMP2 (gelatinase A), fluorogenic peptide substrate
# Test context: APMA-activated recombinant human proMMP2; substrate 10 μM; 37° C.
Entries are sorted into classes by IC50 as follows: LOW: < 1 nM; MID: ≥ 1 nM and < 10 nM; HIGH: ≥ 10 nM

Class label required: O=C(CN(Cc1ccc(-n2cncn2)cc1)S(=O)(=O)c1ccc(OCc2ccoc2)cc1)NO [Example 82c] MID

Would you mind doing C=CCCOc1ccc(S(=O)(=O)N(CC(=O)NO)Cc2ccc(-n3cncn3)cc2)cc1 [Example 79] as well? LOW

Try this compound next: C=CCCOc1ccc(S(=O)(=O)N(CC(=O)NO)Cc2ccc(N3CCOCC3)cc2)cc1 [Example 81] HIGH

Now this one: C=CCCOc1ccc(S(=O)(=O)N(CC(=O)NO)Cc2ccc(-n3ccnc3)cc2)cc1 [Example 80] MID

Now the same for COc1ccc(CN(CC(=O)NO)S(=O)(=O)c2ccc(OCCCCl)cc2)cc1 [Example 68] LOW

Moving on to C=CCCOc1ccc(S(=O)(=O)N(CC(=O)NO)Cc2ccc(N3CCCC3)cc2)cc1 [Example 84a] HIGH

Now this one: O=C(CN(Cc1ccc(-n2cncn2)cc1)S(=O)(=O)c1ccc(OCCC2CC2)cc1)NO [Example 82a] HIGH

Now consider C=CCCOc1ccc(S(=O)(=O)N(CC(=O)NO)Cc2cccc(F)n2)cc1 [Example 83a] and answer again. MID
